Item-by-item account of IC50
system: IL-13 induced STAT6 phosphorylation in BEAS-2B human lung epithelial cells; experiment: Cellular JAKI potency assay (BEAS-2B); format: cell-based; conditions: Homo sapiens, BEAS-2B, BEAS-2B cells, read-out: BEAS2B pIC50 (converted)

Answered examples (3):
| COMPOUND | MEASURED_TARGET | IC50 |
| --- | --- | --- |
| CCc1cc(O)ccc1-c1ccc2c(-c3nc(C4=CCN(C(=O)[C@H](CO)NC)C4)c[nH]3)n[nH]c2c1F [Example 385] | IL-13 induced STAT6 phosphorylation in BEAS-2B human lung epithelial cells | 0.0316 to 0.1 µM |
| CCc1cc(O)ccc1-c1ccc2c(-c3nc(C4=CCN(Cc5cnn[nH]5)CC4)c[nH]3)n[nH]c2c1 [Example 133] | IL-13 induced STAT6 phosphorylation in BEAS-2B human lung epithelial cells | 0.01 to 0.0316 µM |
| CCc1cc(O)ccc1-c1ccc2c(-c3nc(C4=C[C@@H](C(=O)N5CC(N(C)C)C5)NC4)c[nH]3)n[nH]c2c1F [Example 252] | IL-13 induced STAT6 phosphorylation in BEAS-2B human lung epithelial cells | 0.1 to 0.316 µM |

Provide only the value of recorded IC50 for CCc1cc(O)ccc1-c1ccc2c(-c3nc(C4=CCCN(CCCOC)C4)c[nH]3)n[nH]c2c1F [Example 67]
0.01 to 0.0316 µM

Provide only the value of recorded IC50 for CCc1cc(O)ccc1-c1ccc2c(-c3nc(C4=CCN(C[C@@H]5COCCN5)CC4)c[nH]3)n[nH]c2c1 [Compound 17]
0.00316 to 0.01 µM

Source: patent US20240092758A1
